Target: influenza H1N1 virus neuraminidase (Influenza A virus, UniProt P03468)
Sequence (P03468 whole entry): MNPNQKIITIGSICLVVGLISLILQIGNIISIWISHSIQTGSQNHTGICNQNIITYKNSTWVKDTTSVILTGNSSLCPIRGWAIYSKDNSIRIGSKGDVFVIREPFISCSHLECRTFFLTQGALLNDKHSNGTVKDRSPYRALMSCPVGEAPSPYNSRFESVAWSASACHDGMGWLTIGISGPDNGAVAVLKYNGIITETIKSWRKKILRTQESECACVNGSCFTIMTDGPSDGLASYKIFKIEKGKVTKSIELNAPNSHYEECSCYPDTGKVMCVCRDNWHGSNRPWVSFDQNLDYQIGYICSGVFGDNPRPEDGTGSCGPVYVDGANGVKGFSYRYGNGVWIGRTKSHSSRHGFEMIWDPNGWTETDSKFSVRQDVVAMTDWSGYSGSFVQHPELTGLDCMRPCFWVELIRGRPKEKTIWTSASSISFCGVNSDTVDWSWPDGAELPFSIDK
Test: Neuraminidase inhibition screening assay
Format: biochemical
Conditions: pIC50 (expt.), converted from IC50
VALUE TYPE: pIC50
The quantity pIC50 is defined as the negative base-10 logarithm of the molar concentration.

Prompt line: // fetch influenza H1N1 virus neuraminidase (Influenza A virus, UniProt P03468) pIC50 for COc1cc(CCC(=O)CC(O)CCc2ccc(O)c(OC)c2)ccc1O (stereo not shown) [Hexahydrocurcumin]
Response line: 1.47
